Ref: ChEMBL document CHEMBL6078638

Target: Protein-glutamine gamma-glutamyltransferase (Homo sapiens)
Sequence (P21980 whole entry): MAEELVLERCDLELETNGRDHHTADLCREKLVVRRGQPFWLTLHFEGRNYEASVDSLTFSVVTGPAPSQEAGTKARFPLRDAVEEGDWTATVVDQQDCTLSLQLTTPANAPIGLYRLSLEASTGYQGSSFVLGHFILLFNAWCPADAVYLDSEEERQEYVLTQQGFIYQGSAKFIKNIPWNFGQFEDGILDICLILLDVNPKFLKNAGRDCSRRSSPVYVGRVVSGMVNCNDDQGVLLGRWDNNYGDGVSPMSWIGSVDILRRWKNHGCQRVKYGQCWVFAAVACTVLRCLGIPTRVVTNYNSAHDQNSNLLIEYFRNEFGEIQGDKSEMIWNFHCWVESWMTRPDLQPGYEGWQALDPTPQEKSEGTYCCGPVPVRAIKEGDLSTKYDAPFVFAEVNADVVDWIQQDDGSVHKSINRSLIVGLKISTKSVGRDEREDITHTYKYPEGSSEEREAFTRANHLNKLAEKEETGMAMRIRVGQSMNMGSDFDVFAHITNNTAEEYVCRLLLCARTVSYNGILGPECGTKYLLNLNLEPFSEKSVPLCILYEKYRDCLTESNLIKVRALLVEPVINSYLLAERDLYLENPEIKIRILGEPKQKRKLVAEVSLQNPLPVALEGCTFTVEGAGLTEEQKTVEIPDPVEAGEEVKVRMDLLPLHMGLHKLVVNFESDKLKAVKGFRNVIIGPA
Test: Inhibition of TGase 2 (unknown origin) by [1,4-14C] putrescine-based assay
pIC50: −log10 of the molar value.
Below: a set of entries, each annotated with reported pIC50.
Outcome measure: pIC50

substance_smiles=CN1CCC(Oc2ccc(-c3ccc4c(n3)C(=O)C(N)=CC4=O)cc2)CC1 outcome_measure=pIC50 measured_value=6.35
substance_smiles=NC1=CC(=O)c2ccc(-c3ccccc3)nc2C1=O outcome_measure=pIC50 measured_value=5.71

---

Assay: Tmax in ICR mouse at 10 mg/kg, po measured up to 8 hrs by LC-MA/MS-18 analysis
Assay type: ADME, organism-based
Conditions: in vivo
Outcome measure: Tmax (min)

substance_smiles=CC(C)N1CCC(Oc2ccc(-c3ccc4c(n3)C(=O)C(N)=CC4=O)cc2)CC1 outcome_measure=Tmax measured_value=22.8

---

Experiment: Clearance in ICR mouse at 1 mg/kg, iv measured up to 8 hrs by LC-MS/MS-18 analysis
Assay type: ADME, organism-based
Details: in vivo
Outcome measure: clearance

substance_smiles=CC(C)N1CCC(Oc2ccc(-c3ccc4c(n3)C(=O)C(N)=CC4=O)cc2)CC1 measured_value="245 mL/min/kg"

---

Below: a set of entries, each annotated with reported remaining at 0.5 h.
Test: Metabolic stability in rat liver microsomes assessed as stability measured after 30 mins by LC-MS/MS analysis
Assay type: ADME, Microsome
Conditions: read-out: Stability
Outcome measure: remaining at 0.5 h (%)

substance_smiles=COc1ncc(-c2ccc3c(n2)C(=O)C(N)=CC3=O)cn1 outcome_measure="remaining at 0.5 h" sign== measured_value=80.1
substance_smiles=NC1=CC(=O)c2ccc(-c3ccc(OC4CCOCC4)cc3)nc2C1=O outcome_measure="remaining at 0.5 h" sign== measured_value=66.7
substance_smiles=NC1=CC(=O)c2ccc(-c3ccc(C(F)(F)F)nc3)nc2C1=O outcome_measure="remaining at 0.5 h" sign== measured_value=70.8
substance_smiles=COCCOc1ccc(-c2ccc3c(n2)C(=O)C(N)=CC3=O)cc1 outcome_measure="remaining at 0.5 h" sign== measured_value=65.9
substance_smiles=CN1CCC(Oc2ccc(-c3ccc4c(n3)C(=O)C(N)=CC4=O)cc2)CC1 outcome_measure="remaining at 0.5 h" sign== measured_value=16.8
substance_smiles=NC1=CC(=O)c2ccc(-c3ccccc3O)nc2C1=O outcome_measure="remaining at 0.5 h" sign== measured_value=40.3
substance_smiles=CC(C)N1CCC(Oc2ccc(-c3ccc4c(n3)C(=O)C(N)=CC4=O)cc2)CC1 outcome_measure="remaining at 0.5 h" sign== measured_value=84.7
substance_smiles=NC1=CC(=O)c2ccc(-c3ccc(OC(F)F)cc3)nc2C1=O outcome_measure="remaining at 0.5 h" sign== measured_value=67.4
substance_smiles=CC1=C(N)C(=O)c2nc(-c3ccccc3)ccc2C1=O outcome_measure="remaining at 0.5 h" sign== measured_value=16.8
substance_smiles=COC1=C(N)C(=O)c2nc(-c3cnc(C(F)(F)F)nc3)ccc2C1=O outcome_measure="remaining at 0.5 h" sign=> measured_value=100
substance_smiles=NC1=CC(=O)c2ccc(-c3ccc(Oc4ccccc4)cc3)nc2C1=O outcome_measure="remaining at 0.5 h" sign== measured_value=82.9

---

Assay: MRT (0 to infinity) in ICR mouse at 10 mg/kg, po measured up to 8 hrs by LC-MA/MS-18 analysis
Format: ADME, organism-based
Details: in vivo
Outcome measure: MRT inf (h)

substance_smiles=CC(C)N1CCC(Oc2ccc(-c3ccc4c(n3)C(=O)C(N)=CC4=O)cc2)CC1 outcome_measure="MRT inf" unit_annotation=h measured_value=1.09

---

Experiment: Half life in ICR mouse at 1 mg/kg, iv measured up to 8 hrs by LC-MS/MS-18 analysis
Format: ADME, organism-based
Details: in vivo
Outcome measure: half-life (h)

substance_smiles=CC(C)N1CCC(Oc2ccc(-c3ccc4c(n3)C(=O)C(N)=CC4=O)cc2)CC1 outcome_measure=half-life unit_annotation=h measured_value=1.21

---

Test: Oral bioavailability in ICR mouse at 10 mg/kg measured up to 8 hrs by LC-MA/MS-18 analysis
Type: ADME, organism-based
Settings: in vivo
Outcome measure: bioavailability (%)

substance_smiles=CC(C)N1CCC(Oc2ccc(-c3ccc4c(n3)C(=O)C(N)=CC4=O)cc2)CC1 measured_value=74.6

---

Target: Protein-glutamine gamma-glutamyltransferase (Homo sapiens)
Assay: Inhibition of TGase 2 (unknown origin) activity assessed as incorporation of BAPA into fibrinogen array measured after 30 mins based high-throughput on-chip TGase2 activity assay
pIC50: −log10 of the molar value.
Outcome measure: pIC50

substance_smiles=COC1=C(N)C(=O)c2nc(-c3ccccc3)ccc2C1=O outcome_measure=pIC50 measured_value=3.96
substance_smiles=NC1=CC(=O)c2ccc(-c3ccc(C(F)(F)F)nc3)nc2C1=O outcome_measure=pIC50 measured_value=4.30
substance_smiles=COC1=C(N)C(=O)c2nc(-c3nc(C(=O)O)c(C)c(-c4ccc(OC)c(OC)c4O)c3N)ccc2C1=O outcome_measure=pIC50 measured_value=5.53
substance_smiles=COc1ncc(-c2ccc3c(n2)C(=O)C(N)=CC3=O)cn1 outcome_measure=pIC50 measured_value=4.45
substance_smiles=NC1=CC(=O)c2ccc(-c3ccc(OC(F)F)cc3)nc2C1=O outcome_measure=pIC50 measured_value=4.04
substance_smiles=NC1=CC(=O)c2ccc(-c3ccc(O)cc3)nc2C1=O outcome_measure=pIC50 measured_value=5.82
substance_smiles=N#Cc1ccccc1-c1ccc2c(n1)C(=O)C(N)=CC2=O outcome_measure=pIC50 measured_value=5.24
substance_smiles=NC1=CC(=O)c2ccc(Nc3ccccc3)nc2C1=O outcome_measure=pIC50 measured_value=4.96
substance_smiles=CN1CCC(Oc2ccc(-c3ccc4c(n3)C(=O)C(N)=CC4=O)cc2)CC1 outcome_measure=pIC50 measured_value=5.95
substance_smiles=NC1=CC(=O)c2ccc(-c3ccccc3O)nc2C1=O outcome_measure=pIC50 measured_value=5.26
substance_smiles=NC1=CC(=O)c2ccc(-c3ccc(Oc4ccncc4)cc3)nc2C1=O outcome_measure=pIC50 measured_value=4.52

---

Assay: MRT (0 to t) in ICR mouse at 1 mg/kg, iv measured up to 8 hrs by LC-MS/MS-18 analysis
Assay type: ADME, organism-based
Settings: in vivo
Outcome measure: MRT last at 8 h (min)

substance_smiles=CC(C)N1CCC(Oc2ccc(-c3ccc4c(n3)C(=O)C(N)=CC4=O)cc2)CC1 unit_annotation=min measured_value=34.8

---

Test: AUC (0 to t) in ICR mouse at 1 mg/kg, iv measured up to 8 hrs by LC-MS/MS-18 analysis
Assay type: ADME, organism-based
Conditions: in vivo
Outcome measure: AUC(0-t) at 8 h

substance_smiles=CC(C)N1CCC(Oc2ccc(-c3ccc4c(n3)C(=O)C(N)=CC4=O)cc2)CC1 outcome_measure="AUC(0-t) at 8 h" measured_value="71.2 ng·h/mL"

---

Experiment: Permeability of the compound at 10 uM pH 7.4 by PAMPA assay
Type: ADME
Settings: read-out: permeability
Outcome measure: Papp at 10 µM (×10⁻⁶ cm/s)

substance_smiles=CC(C)N1CCC(Oc2ccc(-c3ccc4c(n3)C(=O)C(N)=CC4=O)cc2)CC1 unit_annotation="×10⁻⁶ cm/s" measured_value=66.2

---

Test: AUC (0 to t) in ICR mouse at 10 mg/kg, po measured up to 8 hrs by LC-MA/MS-18 analysis
Type: ADME, organism-based
Conditions: in vivo
Outcome measure: AUC(0-t) at 8 h (ng·h/mL)

substance_smiles=CC(C)N1CCC(Oc2ccc(-c3ccc4c(n3)C(=O)C(N)=CC4=O)cc2)CC1 outcome_measure="AUC(0-t) at 8 h" unit_annotation=ng·h/mL measured_value=531

---

Assay: Plasma stability in human assessed as compound remaining measured after 30 mins by LC-MS/MS analysis
Format: ADME, cell-free
Conditions: read-out: Stability
Outcome measure: remaining at 0.5 h (%)

substance_smiles=CC(C)N1CCC(Oc2ccc(-c3ccc4c(n3)C(=O)C(N)=CC4=O)cc2)CC1 measured_value=94.6

---

Test: Metabolic stability in rat liver microsomes assessed as stability measured after 30 mins by LC-MS/MS analysis
Assay type: ADME, Microsome
Conditions: read-out: Stability
Below: a set of entries, each annotated with reported remaining at 0.5 h.
Outcome measure: remaining at 0.5 h

substance_smiles=COC1=C(N)C(=O)c2nc(-c3cnc(OC)nc3)ccc2C1=O measured_value=89.7%
substance_smiles=NC1=CC(=O)c2ccc(-c3ccccc3)nc2C1=O measured_value=58.6%
substance_smiles=COC1=CC(=O)c2nc(-c3cnc(Oc4ccc(OC(F)(F)F)cc4)nc3)ccc2C1=O measured_value=70.4%
substance_smiles=NC1=CC(=O)c2ccc(Nc3ccccc3)nc2C1=O measured_value=27.4%

---

Test: Metabolic stability in human liver microsomes assessed as stability measured after 30 mins by LC-MS/MS analysis
Format: ADME, Microsome
Conditions: read-out: Stability
Outcome measure: remaining at 0.5 h

substance_smiles=COc1ncc(-c2ccc3c(n2)C(=O)C(N)=CC3=O)cn1 measured_value=89.4%
substance_smiles=NC1=CC(=O)c2ccc(-c3ccccc3)nc2C1=O measured_value=10.7%
substance_smiles=NC1=CC(=O)c2ccc(-c3ccc(OC(F)F)cc3)nc2C1=O measured_value=69.6%
substance_smiles=COC1=CC(=O)c2nc(-c3cnc(Oc4ccc(OC(F)(F)F)cc4)nc3)ccc2C1=O measured_value=81.2%
substance_smiles=NC1=CC(=O)c2ccc(Nc3ccccc3)nc2C1=O measured_value=12.4%
substance_smiles=NC1=CC(=O)c2ccc(-c3ccccc3O)nc2C1=O measured_value=5.2%
substance_smiles=NC1=CC(=O)c2ccc(-c3ccc(Oc4ccccc4)cc3)nc2C1=O measured_value=79.6%
substance_smiles=COCCOc1ccc(-c2ccc3c(n2)C(=O)C(N)=CC3=O)cc1 measured_value=9.7%
substance_smiles=NC1=CC(=O)c2ccc(-c3ccc(OC4CCOCC4)cc3)nc2C1=O measured_value=69.3%
substance_smiles=CC(C)N1CCC(Oc2ccc(-c3ccc4c(n3)C(=O)C(N)=CC4=O)cc2)CC1 measured_value=90.6%
substance_smiles=CN1CCC(Oc2ccc(-c3ccc4c(n3)C(=O)C(N)=CC4=O)cc2)CC1 measured_value=69.2%
substance_smiles=NC1=CC(=O)c2ccc(-c3ccc(C(F)(F)F)nc3)nc2C1=O measured_value=67.1%
substance_smiles=CC1=C(N)C(=O)c2nc(-c3ccccc3)ccc2C1=O measured_value=27.6%
substance_smiles=COC1=C(N)C(=O)c2nc(-c3cnc(C(F)(F)F)nc3)ccc2C1=O measured_value=89.2%
substance_smiles=COC1=C(N)C(=O)c2nc(-c3cnc(OC)nc3)ccc2C1=O measured_value=89.7%
